tested on: MLKL (Homo sapiens, UniProt Q8NB16)
Sequence (Q8NB16 whole entry): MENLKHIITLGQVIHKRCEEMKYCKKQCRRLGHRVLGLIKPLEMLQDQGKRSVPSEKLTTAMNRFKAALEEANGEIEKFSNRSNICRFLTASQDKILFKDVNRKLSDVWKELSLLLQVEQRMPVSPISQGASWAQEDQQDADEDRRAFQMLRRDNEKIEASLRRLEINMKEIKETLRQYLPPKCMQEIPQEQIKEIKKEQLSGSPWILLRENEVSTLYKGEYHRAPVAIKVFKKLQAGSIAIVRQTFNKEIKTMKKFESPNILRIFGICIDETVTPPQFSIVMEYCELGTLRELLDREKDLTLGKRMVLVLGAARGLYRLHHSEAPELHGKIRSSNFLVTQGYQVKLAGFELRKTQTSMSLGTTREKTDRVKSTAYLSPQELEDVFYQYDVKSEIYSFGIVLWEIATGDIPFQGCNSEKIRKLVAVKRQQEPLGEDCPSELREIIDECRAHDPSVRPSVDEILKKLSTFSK
assay procedure: MLKL degradation assay in HepG2 cell line (western blot)
Type: cell-based
Parameters: endogenous in cells; host or cells: HepG2 or HaCaT
condition notes: compound 10 μM; cell line not given
readout name: Degradation assay (Degradation %) 10 μM

* Nc1ncc(-c2cnn(C3CCN(CCC4CCN(C(=O)CNc5cccc6c5C(=O)N(C5CCC(=O)NC5=O)C6=O)CC4)CC3)c2)nc1C(=O)O[C@@H](C(=O)Nc1ccc(F)cc1)c1ccccc1 (some centres unmarked) | 41.71
* Nc1ncc(-c2cnn(C3CCN(C(=O)CC4CCN(C(=O)C5CCN(c6cccc7c6C(=O)N(C6CCC(=O)NC6=O)C7=O)CC5)CC4)CC3)c2)nc1C(=O)O[C@@H](C(=O)Nc1ccc(F)cc1)c1ccccc1 (some centres unmarked) | 51.56

[A] Nc1ncc(-c2cnn(C3CCN(CCC4CCN(C(=O)c5ccc(C(=O)NC6CCC(=O)NC6=O)cc5)CC4)CC3)c2)nc1C(=O)O[C@@H](C(=O)Nc1ccc(F)cc1)c1ccccc1 (some centres unmarked)
[B] Nc1ncc(-c2cnn(C3CCN(CCC4CCN(C(=O)C5CCN(c6ccc7c(c6)C(=O)N(C6CCC(=O)NC6=O)C7=O)CC5)CC4)CC3)c2)nc1C(=O)O[C@@H](C(=O)Nc1ccc(F)cc1)c1ccccc1 (some centres unmarked)
[C] Nc1ncc(-c2cnn(C3CCN(CCCN4CCN(C(=O)CC5CCN(c6cccc7c6C(=O)N(C6CCC(=O)NC6=O)C7=O)CC5)CC4)CC3)c2)nc1C(=O)O[C@@H](C(=O)Nc1ccc(F)cc1)c1ccccc1 (some centres unmarked)
// ranking: key=Degradation assay (Degradation %) 10 μM, reverse=True // respond by listing labels in the order requested
C, A, B
(C: 88.6%, A: 56.40%, B: 23.6%)
